So I've got a bunch of binders here, and I need their pKd values.
# experimental system: recombinant human CD3ε (1-27) peptide with a C-terminal Tencon25 fusion (human) (UniProt P07766)
# Sequence (P07766 22-48): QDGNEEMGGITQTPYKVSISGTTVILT
# assay explanation: ProteOn SPR, mAb captured by anti-human Fc, antigen as analyte
Value format note: pKd is -log10 of concentration (mol/L); just state the number.

Ask | Given the entry CD3B312 (antibody, V domains shown) VH: QVQLQQSGPRLVRPSQTLSLTCAISGDSVFNNNAAWSWIRQSPSRGLEWLGRTYYRSKWLYDYAVSVKSRITVNPDTSRNQFTLQLNSVTPEDTALYYCARGYSSSFDYWGQGTLVTVSS VL: QSALTQPASVSGSPGQSITISCTGTSSNIGTYKFVSWYQQHPDKAPKVLLYEVSKRPSGVSSRFSGSKSGNTASLTISGLQAEDQADYHCCSYAGSGTLLFGGGTKLTVL , report its measured pKd.
Reply | 7.69

Ask | Further, for BLW-2E6 variant CD3H219/CD3L137 (antibody, V domains shown) VH: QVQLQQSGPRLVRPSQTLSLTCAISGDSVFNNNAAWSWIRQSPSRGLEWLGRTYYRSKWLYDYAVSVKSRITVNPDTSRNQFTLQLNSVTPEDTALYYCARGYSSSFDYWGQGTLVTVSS VL: QSALTQPASVSGSPGQSITISCTGTSSNIGTYKFVSWYQQHPGKAPKVMIYEVSKRPSGVSNRFSGSKSGNTASLTISGLQAEDEADYYCCSYAGSGTLLFGGGTKLTVL ?
Reply | 7.48

Ask | Then what about the binder CD3B376 (antibody, human IgG4 S228P, lambda, F234A L235A, V domains shown) VH: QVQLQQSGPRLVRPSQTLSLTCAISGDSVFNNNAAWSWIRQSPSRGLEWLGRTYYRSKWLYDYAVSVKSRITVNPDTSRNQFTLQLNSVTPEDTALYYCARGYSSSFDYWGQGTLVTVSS VL: QSALTQPASVSGSPGQSITISCTGTSSNIGTYKFVSWYQQHPDKAPKVLLYEVSKRPSGVSSRFSGSKSGNTASLTISGLQAEDQADYHCVSYAGSGTLLFGGGTKLTVLG ?
Reply | 7.63

Ask | Subsequent entry: BLW-2E6 variant CD3H219/CD3L160 (LC C91L) (antibody, V domains shown) VH: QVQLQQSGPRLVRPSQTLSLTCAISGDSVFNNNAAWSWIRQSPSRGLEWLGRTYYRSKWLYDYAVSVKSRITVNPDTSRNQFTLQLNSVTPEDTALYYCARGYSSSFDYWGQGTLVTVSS VL: QSALTQPASVSGSPGQSITISCTGTSSNIGTYKFVSWYQQHPDKAPKVLLYEVSKRPSGVSSRFSGSKSGNTASLTISGLQAEDQADYHCLSYAGSGTLLFGGGTKLTVL
Reply | 7.39
